- protocol summary: AUC in mouse at 25 mg/kg, po
- Type: ADME, organism-based
- Design: dose 25 mg/kg, route oral
- condition summary: plasma
What AUC was measured for each of the following?
Respond with the bare value in ng·h/mL.

Noted for "Nc1nccn2c1c(-c1ccc3ccc(-c4ccccc4)nc3c1F)nc2[C@H]1CC[C@H](C(=O)O)CC1" : its AUC reads 7970

// recorded AUC for "Nc1nccn2c1c(-c1ccc3ccc(-c4ccccc4)nc3c1F)nc2[C@H]1CC[C@H](C(N)=O)CC1" : 3570

// "Nc1nccn2c1c(-c1ccc3ccc(-c4ccccc4)nc3c1F)nc2[C@H]1CC[C@H](C(=O)Nc2nncs2)CC1" : AUC value = 297

AUC reading for "Nc1nccn2c1c(-c1ccc3ccc(-c4ccccc4)nc3c1F)nc2[C@H]1CC[C@H](C(=O)Nc2nc3ccccc3[nH]2)CC1" : 158000
